Could you please report measured GI50 for the items listed next?
# System: HCC-2998 colon
# EXPERIMENT_DESCRIPTION: NCI tumour cell line growth inhibition, 48 h

Input line: Consider the compound Cc1ccc2c(-c3ccnc(Nc4cccc(C(F)(F)F)c4)n3)c(-c3ccccc3)nn2n1 and give its recorded GI50.
Output line: 5.99 µM

Input line: Consider the compound N=C1C(c2nc3ccccc3c(=O)[nH]2)=C(O)CN1c1cccc(Cl)c1 . State its measured GI50.
Output line: 34.3 µM

Input line: For COc1ccc(/C=C/C(=O)C(=O)/C=C/c2ccc(OC)c(OC)c2)cc1OC , write its GI50.
Output line: 1.72 µM

Input line: Tell me its GI50 given CCNCCS(=O)(=O)NC[C@@]1(c2ccccc2)SC(NC(=O)C(C)(C)C)=NN1C(=O)C(C)(C)C as the entry.
Output line: < 0.01 µM

Input line: Query GI50 for CN1C(=O)[C@@H](CC2CCCC2)N(C2CCCC2)c2nc(Nc3cc(Cl)c(O)c(Cl)c3)ncc21
Output line: 29.8 µM

* * *

Task for the reader: assign each of the following compounds its reported log10 TGI.
# Test system: SNB-19 CNS
# EXPERIMENT_DESCRIPTION: NCI tumour cell line growth inhibition, 48 h
Form field - Quantity: TGI; Unit: µM; Scale: log10

Input line: Quote log10 TGI reported for COc1cc(C(=O)/C=C/c2cccnc2Nc2ccc(Cl)cc2)cc(OC)c1OC please.
Output line: 0.46

Input line: Given C=C(CC)C(=O)c1ccc(OCC(=O)O)c(Cl)c1Cl , respond with its log10 TGI.
Output line: 1.50

Input line: Return value of log10 TGI for input CCCCNC(=O)CC1=C(C)/C(=C/c2[nH]c(-c3ccc[nH]3)cc2OC)N=C1C , no commentary.
Output line: 1.48

Input line: Provide log10 TGI value for the following compound: [CH3][Ge]([CH3])([CH2]CC#N)[S]c1ccccc1
Output line: 1.57

Input line: // fetch log10 TGI given entry CC(=O)NC(CCc1ccc(Cl)c(Cl)c1)c1cccc(O)c(=O)c1 (stereo not given)
Output line: 1.27

* * *

# System: SN12C renal
# EXPERIMENT_DESCRIPTION: NCI tumour cell line growth inhibition, 48 h
Assignment: determine reported TGI for the given compounds.

Input line: Recall and state the measured TGI for C=C(CN(C)C)C(=O)c1ccccc1 .
Output line: 38.7 µM

Input line: For the compound Cc1c(Br)c(Br)c2c3c1nc(N1CCNCC1)n3CCC2 , report TGI.
Output line: 2.85 µM

Input line: Provide one value: measured TGI of O=c1c2c3c(sc2nc2n1sc1nc4sc5c(c4c(=O)n12)CCCC5)CCCC3
Output line: > 100 µM

Input line: Given COc1cccc(N2C(=N)/C(=C3\Nc4ccccc4S3)CC2=O)c1 , respond with its TGI.
Output line: > 100 µM

Input line: Supply recorded TGI for N#Cc1c(-c2ccccc2)nc(SCC(O)CN2CCOCC2)nc1N1CCOCC1 (centres undefined) here.
Output line: > 100 µM

Input line: Quick one: give measured TGI for CN1C(=O)[C@@H](CC2CCCC2)N(C2CCCC2)c2nc(Nc3cc(Cl)c(O)c(Cl)c3)ncc21
Output line: > 100 µM

Input line: For the compound CC[C@]1(O)CC2CN(CCc3c([nH]c4ccccc34)C(C(=O)OC)(c3cc4c(cc3OC)N(C=O)[C@H]3[C@@](O)(C(=O)OC)[C@H](OC(C)=O)[C@]5(CC)[C@@H]6C[C@@H]6CN6CC[C@]43[C@@H]65)C2)C1 (some centres undefined) , give its reported TGI.
Output line: > 32.5 µM

Input line: Please give measured TGI of the following entry: CC(/C=C/c1ccccc1)=N\NC(=S)N/N=C(C)/C=C/c1ccccc1
Output line: > 100 µM

Input line: Using known records, supply TGI for Cc1c(N)c(C#N)c2n(C)c3ncccc3n2c1=O
Output line: > 100 µM

* * *

Answer each item with its documented TGI.
# System: PC-3 prostate
# EXPERIMENT_DESCRIPTION: NCI tumour cell line growth inhibition, 48 h

Input line: Output TGI of Nc1nc(N)c2c(Cl)c(CNc3ccc(Cl)c(Cl)c3)ccc2n1
Output line: 12.7 µM

Input line: Annotate the compound CCOP(=O)(OCC)C(Cc1c[nH]c2ccccc12)C(=O)O (configuration not stated) with its measured TGI.
Output line: > 100 µM

Input line: Provide measured TGI value, entry: c1ccc(C2(c3cc4ccccc4[nH]3)OCCO2)nc1
Output line: > 100 µM

Input line: Supply recorded TGI for Cc1ccc(N=NC(=O)NNc2ccc(C)cc2Br)c(Br)c1 here.
Output line: 72.5 µM

Input line: Read the entry O=Nn1c2ccccc2c2ccccc21 and write its reported TGI.
Output line: > 100 µM

Input line: In one line, give reported TGI of the entry C=CCc1cc(O)ccc1O .
Output line: > 100 µM

Input line: Find the measured TGI of CN1CC=C(C#CC(C)(C)O)CC1 and report it.
Output line: > 37.5 µM

Input line: Consider the compound O=S(=O)(N=[Se](=O)(c1ccccc1)c1ccccc1)c1ccccc1 and give its recorded TGI.
Output line: > 100 µM

Input line: Query TGI for COc1ccc(NCc2cccc3c(=O)c4ccc(Cl)cc4oc23)cc1
Output line: > 100 µM

Input line: Check the records and state TGI for COC(=O)CSc1cc(Cl)c(C)cc1S(=O)(=O)Nc1n[nH]c(N)n1
Output line: > 10 µM

Input line: Answer with the recorded TGI for the compound listed here: CCc1cccc(C(C)C)c1NC(=O)C(=O)Nn1c(=S)[nH]c2ccccc2c1=O
Output line: > 100 µM

Input line: For the compound Cc1[nH]c(N)nc(=S)c1CCCNc1ccccc1 , report TGI.
Output line: > 100 µM

* * *

# Tested on: K-562 leukemia
# EXPERIMENT_DESCRIPTION: NCI tumour cell line growth inhibition, 48 h
Kindly supply the reported TGI values for the records listed here.

Input line: Assign TGI to the following record: O=C(Nc1ccc(C(F)(F)F)cc1[N+](=O)[O-])C(=O)Nn1c(=S)[nH]c2ccccc2c1=O
Output line: > 100 µM

Input line: For COC(=O)COc1ccccc1/C=C1/N=C(c2ccccc2)N(c2c(C)n(C)n(-c3ccccc3)c2=O)C1=O , write its TGI.
Output line: > 100 µM

Input line: Return TGI (reported value) for this molecule: C=C1C(=O)O[C@H]2C(=O)[C@H](C)CCC/C(C)=C/CC[C@@]3(C)O[C@@H]3C[C@@H]12
Output line: 10.2 µM

Input line: Output measured TGI for this item: CCc1nc(N)nc(N)c1-c1ccc(N2CCNCC2)c([N+](=O)[O-])c1
Output line: > 90.2 µM

Input line: Consider the molecule CC(=O)[CH-]C(=O)c1ccccc1.CC(=O)[CH-]C(=O)c1ccccc1.CC[C@H](CCC(C)[C@H]1CCC2[C@@H]3CC=C4C[C@@H]([O-])CC[C@]4(C)C3CC[C@@]21C)C(C)C.CC[C@H](CCC(C)[C@H]1CCC2[C@@H]3CC=C4C[C@@H]([O-])CC[C@]4(C)C3CC[C@@]21C)C(C)C.Cl.[Ti+4] (some centres not stated) . State its measured TGI.
Output line: > 25 µM

Input line: Assign TGI to the following record: Oc1ccc(I)c2cccnc12
Output line: 23.8 µM

Input line: Provide TGI value for the following molecule: CN1C(=O)[C@@H](CC2CCCC2)N(C2CCCC2)c2nc(Nc3cc(Cl)c(O)c(Cl)c3)ncc21
Output line: > 100 µM

* * *

# Test system: HOP-92 NSCLC
# EXPERIMENT_DESCRIPTION: NCI tumour cell line growth inhibition, 48 h; in the data active = GI50 below about 0.43 µM; inactive = the rest
Tick one outcome: 1 (active), 0 (inactive)

Input line: Which result was noted for this compound in the test: CC[C@]1(O)CC2CN(CCc3c([nH]c4ccccc34)C(C(=O)OC)(c3cc4c(cc3OC)N(C=O)[C@H]3[C@@](O)(C(=O)OC)[C@H](OC(C)=O)[C@]5(CC)[C@@H]6C[C@@H]6CN6CC[C@]43[C@@H]65)C2)C1 (stereo partly drawn)
Output line: 1

Input line: Tell me the assay call for [pH]1p2[pH]p3p1p3[pH]2.c1cc[c]([Ge]([c]2ccccc2)[c]2ccccc2)cc1.c1cc[c]([Ge]([c]2ccccc2)[c]2ccccc2)cc1.c1cc[c]([Ge]([c]2ccccc2)[c]2ccccc2)cc1 please.
Output line: 0

Input line: Can you look up the reported call for Oc1ccc(/C=N/NC(=S)Nc2ccccc2)nc1 for me?
Output line: 0

Input line: Outcome logged for Cc1cc(NS(=O)(=O)c2ccc(-c3cnc(C4CC4)o3)cc2)ccc1Cl in this assay:
Output line: 0

Input line: Assay result, entry O=C1NC(=NCCc2ccccc2F)S/C1=C\c1ccc2ncccc2c1 — outcome?
Output line: 0

Input line: Dear all, I need the recorded test outcome for c1ccc(C2=Nc3ccccc3N3CNN=C23)cc1 , thank you.
Output line: 0

Input line: Check the results log: what was the call for Cn1ccc(S(=O)(=O)N2CCC[C@H](Nc3nccc(-c4c(-c5cccc(O)c5)nc5occn45)n3)C2)n1 ?
Output line: 0

Input line: Assay result, entry Cc1cc2c(C(C)C)c(O)c(O)c(/C=N/O)c2c(O)c1-c1c(C)cc2c(C(C)C)c(O)c(O)c(/C=N/O)c2c1O — outcome?
Output line: 0
